Value source: ChEMBL document CHEMBL3297733

Biological target: Serine/threonine-protein kinase 26 (Homo sapiens, UniProt Q9P289)
pIC50: −log10 of the molar value.
endpoint name: pIC50

Serine/threonine-protein kinase 26 (Homo sapiens, UniProt Q9P289) pIC50 of CN1CCN(C[C@@H](NC(=O)C[C@H]2CNC(=O)c3cc(-c4cccc(Cl)c4)cn32)C2CCCCC2)CC1 is < 5.00

###

// reported log10 of CLint scaled for each item listed
Assay: Intrinsic clearance in human liver microsomes after 5 mins by LC-MS/MS analysis
Format: ADME
Conditions: read-out: CLH
All values: log10 CLint scaled [L/h/kg].

Take a look at these entries with their results.
• O=C(C[C@H]1CNC(=O)c2cc(-c3cccc(F)c3)cn21)N[C@H](CO)C1CCCCC1 = -0.06
• CC(C)(C)CNC(=O)CC1CNC(=O)c2cc(-c3ccsc3)cn21 (racemic) = 0.69
• CN1CCN(C[C@@H](NC(=O)C[C@H]2CNC(=O)c3cc(-c4cccc(Cl)c4)cn32)C2CCCCC2)CC1 = -0.45
• CN1CCN(C[C@@H](NC(=O)C[C@H]2CNC(=O)c3cc(-c4cccc(F)c4)cn32)C2CCCCC2)CC1 = -0.40
• O=C(CC1CNC(=O)c2cc(-c3cccc(F)c3)cn21)NCC1CCCCC1 (racemic) = 0.46

Recorded result, NC[C@@H](NC(=O)C[C@H]1CNC(=O)c2cc(-c3cccc(F)c3)cn21)c1ccccc1 , log10 of CLint scaled: -0.30

Recorded result, CN(C)C1CCN(C[C@@H](NC(=O)C[C@H]2CNC(=O)c3cc(-c4cccc(Cl)c4)cn32)C2CCCCC2)CC1 , log10 of CLint scaled: -0.52

Recorded result, O=C(C[C@H]1CNC(=O)c2cc(-c3cccc(F)c3)cn21)N[C@H](CO)c1ccccc1 , log10 of CLint scaled: 0.52

###

Assay: Clearance in human hepatocytes
Format: ADME, cell-based, Hepatocyte
Conditions: read-out: CLH
endpoint name: CLint scaled (mL/min/kg)
Field: numeric (mL/min/kg). Do not append units.

Recorded result, CN1CCN(C[C@@H](NC(=O)C[C@H]2CNC(=O)c3cc(-c4cccc(Cl)c4)cn32)C2CCCCC2)CC1 , CLint scaled: 5.9

###

Biological target: Casein kinase II (Homo sapiens, UniProt P19784+P67870+P68400)
Sequence (P67870 whole entry): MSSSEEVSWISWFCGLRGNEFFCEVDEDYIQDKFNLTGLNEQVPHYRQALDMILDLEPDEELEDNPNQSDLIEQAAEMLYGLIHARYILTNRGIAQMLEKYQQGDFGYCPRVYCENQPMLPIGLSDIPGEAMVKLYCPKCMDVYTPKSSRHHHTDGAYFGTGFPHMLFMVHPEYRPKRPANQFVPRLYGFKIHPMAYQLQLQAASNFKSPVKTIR
Sequence (P68400 whole entry): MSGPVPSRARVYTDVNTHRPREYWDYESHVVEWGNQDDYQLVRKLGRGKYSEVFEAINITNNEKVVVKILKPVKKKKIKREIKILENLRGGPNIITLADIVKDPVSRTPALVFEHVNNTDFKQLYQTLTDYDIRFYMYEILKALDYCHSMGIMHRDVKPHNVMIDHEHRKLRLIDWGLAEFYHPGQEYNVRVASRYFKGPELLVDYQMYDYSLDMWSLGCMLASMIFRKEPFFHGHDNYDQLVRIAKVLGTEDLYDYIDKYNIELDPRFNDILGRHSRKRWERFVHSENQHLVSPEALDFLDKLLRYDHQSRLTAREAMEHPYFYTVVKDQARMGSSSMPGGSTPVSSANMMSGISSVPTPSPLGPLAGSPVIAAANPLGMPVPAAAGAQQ
Sequence (P19784 whole entry): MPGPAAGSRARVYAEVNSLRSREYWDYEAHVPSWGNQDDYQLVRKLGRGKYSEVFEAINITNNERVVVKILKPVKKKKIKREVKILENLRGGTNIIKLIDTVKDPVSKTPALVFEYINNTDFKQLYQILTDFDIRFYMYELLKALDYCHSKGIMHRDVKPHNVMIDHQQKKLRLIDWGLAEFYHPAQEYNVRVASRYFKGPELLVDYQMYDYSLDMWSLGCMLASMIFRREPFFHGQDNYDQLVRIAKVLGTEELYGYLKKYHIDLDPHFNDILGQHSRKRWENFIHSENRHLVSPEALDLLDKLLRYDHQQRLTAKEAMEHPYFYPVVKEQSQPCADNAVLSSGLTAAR
Assay: Inhibition of CK2 (unknown origin)
endpoint name: IC50

Recorded result, CC(C)(C)CNC(=O)CC1CNC(=O)c2cc(-c3ccsc3)cn21 (racemic) , IC50: > 10 µM

Recorded result, CN1CCN(C[C@@H](NC(=O)C[C@H]2CNC(=O)c3cc(-c4cccc(Cl)c4)cn32)C2CCCCC2)CC1 , IC50: > 10 µM

###

Molecular target: Tyrosine-protein kinase Lyn (Homo sapiens, UniProt P07948)
endpoint name: IC50

Recorded result, CN1CCN(C[C@@H](NC(=O)C[C@H]2CNC(=O)c3cc(-c4cccc(Cl)c4)cn32)C2CCCCC2)CC1 , IC50: > 10 µM

###

Biological target: Protein kinase C beta type (Homo sapiens)
Sequence (P05771 whole entry): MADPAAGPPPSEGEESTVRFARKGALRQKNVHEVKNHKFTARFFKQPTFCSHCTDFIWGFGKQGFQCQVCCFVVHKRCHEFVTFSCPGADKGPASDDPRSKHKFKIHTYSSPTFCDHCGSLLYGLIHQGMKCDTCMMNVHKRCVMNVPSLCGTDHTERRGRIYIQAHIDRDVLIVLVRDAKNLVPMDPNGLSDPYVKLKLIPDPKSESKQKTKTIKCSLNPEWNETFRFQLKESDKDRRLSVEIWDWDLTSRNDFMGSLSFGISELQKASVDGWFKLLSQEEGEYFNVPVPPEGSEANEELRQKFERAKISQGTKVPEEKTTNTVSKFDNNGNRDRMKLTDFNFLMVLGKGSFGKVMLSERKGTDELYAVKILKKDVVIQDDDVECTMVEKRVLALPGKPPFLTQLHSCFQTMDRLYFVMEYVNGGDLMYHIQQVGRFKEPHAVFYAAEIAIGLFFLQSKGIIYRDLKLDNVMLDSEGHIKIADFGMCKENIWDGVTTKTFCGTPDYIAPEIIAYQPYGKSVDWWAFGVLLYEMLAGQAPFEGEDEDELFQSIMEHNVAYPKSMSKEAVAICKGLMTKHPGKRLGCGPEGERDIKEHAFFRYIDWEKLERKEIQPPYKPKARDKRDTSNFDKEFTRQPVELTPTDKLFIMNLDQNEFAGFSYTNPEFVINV
pIC50: −log10 of the molar value.
endpoint name: pIC50

Recorded result, CN1CCN(C[C@@H](NC(=O)C[C@H]2CNC(=O)c3cc(-c4cccc(Cl)c4)cn32)C2CCCCC2)CC1 , pIC50: < 5.00

###

Target: Serine/threonine-protein kinase pim-1 (Homo sapiens, UniProt P11309)
Sequence (P11309 whole entry): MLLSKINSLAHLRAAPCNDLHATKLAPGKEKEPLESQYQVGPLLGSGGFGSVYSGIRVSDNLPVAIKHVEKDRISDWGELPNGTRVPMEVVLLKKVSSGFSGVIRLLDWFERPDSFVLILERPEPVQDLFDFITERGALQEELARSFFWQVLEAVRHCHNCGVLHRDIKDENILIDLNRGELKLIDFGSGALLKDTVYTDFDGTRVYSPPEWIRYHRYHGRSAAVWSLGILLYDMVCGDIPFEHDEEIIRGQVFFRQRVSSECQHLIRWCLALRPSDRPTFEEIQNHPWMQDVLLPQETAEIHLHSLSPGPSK
We label by threshold. Values of IC50 strictly beneath 100 nM are class 1. Values of 100 nM and up are class 0.

Example cases with answers are listed next.
• O=C(C[C@H]1CNC(=O)c2cc(-c3cccc(F)c3)cn21)N[C@H](CO)Cc1ccccc1 = class 0
• CC(C)(C)CNC(=O)CC1CNC(=O)c2cc(-c3ccncc3)cn21 (racemic) = class 0
• C[C@@H](CN1CCN(C)CC1)NC(=O)C[C@H]1CNC(=O)c2cc(-c3cccc(Cl)c3)cn21 = class 0
• O=C(CC1CNC(=O)c2cc(-c3cn[nH]c3)cn21)NCc1cccc(F)c1 (racemic) = class 0
• CN1CCN(C[C@@H](NC(=O)C[C@H]2CNC(=O)c3cc(-c4ccc(F)c(F)c4)cn32)C2CCCCC2)CC1 = class 1
• O=C(CC1CNC(=O)c2cc(-c3ccccc3F)cn21)NCC1CCCCC1 (racemic) = class 0
• CN1CCN(C[C@@H](NC(=O)C[C@H]2CNC(=O)c3cc(-c4cccc(Cl)c4)cn32)C2CCCCC2)CC1 = class 1
• O=C(CC1CNC(=O)c2cc(-c3cc(Cl)ccc3F)cn21)NCc1ccco1 (racemic) = class 0

// switching to the query molecule
[Q] Does the reported IC50 of the following molecule sit strictly below 100 nM? O=C(CC1CNC(=O)c2cc(-c3ccnc(Cl)n3)cn21)NCC1CCCCC1 (racemic)
[A] class 1

###

Assay: Plasma protein binding in mouse
Assay type: ADME
Details: read-out: PPB (converted)
endpoint name: fraction unbound
Kindly provide the number alone.

Recorded result, CN1CCN(C[C@@H](NC(=O)C[C@H]2CNC(=O)c3cc(-c4cccc(Cl)c4)cn32)C2CCCCC2)CC1 , fraction unbound: 0.02

###

Target: Protein-tyrosine kinase 6 (Homo sapiens, UniProt Q13882)
Sequence (Q13882 whole entry): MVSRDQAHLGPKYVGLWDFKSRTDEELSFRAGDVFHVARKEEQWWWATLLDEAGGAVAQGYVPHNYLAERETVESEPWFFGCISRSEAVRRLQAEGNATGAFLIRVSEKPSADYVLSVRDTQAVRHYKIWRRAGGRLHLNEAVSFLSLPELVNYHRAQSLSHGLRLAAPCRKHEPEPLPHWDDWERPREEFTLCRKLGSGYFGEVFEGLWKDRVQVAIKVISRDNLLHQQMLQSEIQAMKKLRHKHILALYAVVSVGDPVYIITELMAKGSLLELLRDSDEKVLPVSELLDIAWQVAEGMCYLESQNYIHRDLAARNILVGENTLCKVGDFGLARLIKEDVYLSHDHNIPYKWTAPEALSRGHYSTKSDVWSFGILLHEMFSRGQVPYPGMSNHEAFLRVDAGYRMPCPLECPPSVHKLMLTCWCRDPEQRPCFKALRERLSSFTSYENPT
endpoint name: IC50

Protein-tyrosine kinase 6 (Homo sapiens, UniProt Q13882) IC50 of CN1CCN(C[C@@H](NC(=O)C[C@H]2CNC(=O)c3cc(-c4cccc(Cl)c4)cn32)C2CCCCC2)CC1 is > 10 µM

###

Experiment: Cytotoxicity against human NCI-H929 cells after 72 hrs by CellTitre-Glo assay
Format: functional, cell-based
Settings: NCI-H929, 72 h
endpoint name: IC50

Recorded result, CN1CCN(C[C@@H](NC(=O)C[C@H]2CNC(=O)c3cc(-c4cccc(Cl)c4)cn32)C2CCCCC2)CC1 , IC50: 5.93 µM

###

Assay: Intrinsic clearance in dog hepatocytes
Assay type: ADME, cell-based, Canis lupus familiaris, Hepatocyte
Details: read-out: CLH
endpoint name: CLint scaled
Answer format reminder: number followed by unit.

Recorded result, CN1CCN(C[C@@H](NC(=O)C[C@H]2CNC(=O)c3cc(-c4cccc(Cl)c4)cn32)C2CCCCC2)CC1 , CLint scaled: 11 mL/min/kg

###

Target: Cytochrome P450 3A4 (Homo sapiens, UniProt P08684)
Assay: Inhibition of CYP3A4 (unknown origin)
Type: ADME
endpoint name: IC50

Recorded result, CN1CCN(C[C@@H](NC(=O)C[C@H]2CNC(=O)c3cc(-c4cccc(Cl)c4)cn32)C2CCCCC2)CC1 , IC50: > 10 µM

###

Target: Maternal embryonic leucine zipper kinase (Homo sapiens)
endpoint name: IC50

Maternal embryonic leucine zipper kinase (Homo sapiens) IC50 of CN1CCN(C[C@@H](NC(=O)C[C@H]2CNC(=O)c3cc(-c4cccc(Cl)c4)cn32)C2CCCCC2)CC1 is > 10 µM

###

Biological target: Glycogen synthase kinase-3 beta (Homo sapiens)
endpoint name: IC50 (nM)
Field: numeric (nM). Do not append units.

Glycogen synthase kinase-3 beta (Homo sapiens) IC50 of O=C(CC1CNC(=O)c2cc(-c3cn[nH]c3)cn21)NCc1cccc(F)c1 (racemic) is 386

###

Molecular target: Serine/threonine-protein kinase pim-2 (Homo sapiens)
Sequence (Q9P1W9 whole entry): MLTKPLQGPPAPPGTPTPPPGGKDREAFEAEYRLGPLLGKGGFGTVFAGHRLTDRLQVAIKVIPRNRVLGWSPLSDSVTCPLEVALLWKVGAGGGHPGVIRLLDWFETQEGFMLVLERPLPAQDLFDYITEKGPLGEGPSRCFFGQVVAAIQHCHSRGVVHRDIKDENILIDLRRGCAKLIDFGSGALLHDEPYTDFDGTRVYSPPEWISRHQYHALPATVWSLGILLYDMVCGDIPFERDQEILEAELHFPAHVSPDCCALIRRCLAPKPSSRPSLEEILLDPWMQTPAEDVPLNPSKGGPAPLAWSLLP
endpoint name: pIC50
In simple prose, pIC50 is minus the logarithm base ten of a concentration in moles per litre.

- CN1CCN(C[C@@H](NC(=O)C[C@H]2CNC(=O)c3cc(-c4ccc(F)c(F)c4)cn32)C2CCCCC2)CC1: 6.60

Serine/threonine-protein kinase pim-2 (Homo sapiens) pIC50 of CN1CCN(C[C@@H](NC(=O)C[C@H]2CNC(=O)c3cc(-c4ccnc(F)c4)cn32)C2CCCCC2)CC1 is 7.02

Serine/threonine-protein kinase pim-2 (Homo sapiens) pIC50 of CN1CCN(C[C@@H](NC(=O)C[C@H]2CNC(=O)c3cc(-c4cccc(Cl)c4)cn32)C(C)(C)C)CC1 is 6.58

###

Biological target: Mast/stem cell growth factor receptor Kit (Homo sapiens, UniProt P10721)
Sequence (P10721 whole entry): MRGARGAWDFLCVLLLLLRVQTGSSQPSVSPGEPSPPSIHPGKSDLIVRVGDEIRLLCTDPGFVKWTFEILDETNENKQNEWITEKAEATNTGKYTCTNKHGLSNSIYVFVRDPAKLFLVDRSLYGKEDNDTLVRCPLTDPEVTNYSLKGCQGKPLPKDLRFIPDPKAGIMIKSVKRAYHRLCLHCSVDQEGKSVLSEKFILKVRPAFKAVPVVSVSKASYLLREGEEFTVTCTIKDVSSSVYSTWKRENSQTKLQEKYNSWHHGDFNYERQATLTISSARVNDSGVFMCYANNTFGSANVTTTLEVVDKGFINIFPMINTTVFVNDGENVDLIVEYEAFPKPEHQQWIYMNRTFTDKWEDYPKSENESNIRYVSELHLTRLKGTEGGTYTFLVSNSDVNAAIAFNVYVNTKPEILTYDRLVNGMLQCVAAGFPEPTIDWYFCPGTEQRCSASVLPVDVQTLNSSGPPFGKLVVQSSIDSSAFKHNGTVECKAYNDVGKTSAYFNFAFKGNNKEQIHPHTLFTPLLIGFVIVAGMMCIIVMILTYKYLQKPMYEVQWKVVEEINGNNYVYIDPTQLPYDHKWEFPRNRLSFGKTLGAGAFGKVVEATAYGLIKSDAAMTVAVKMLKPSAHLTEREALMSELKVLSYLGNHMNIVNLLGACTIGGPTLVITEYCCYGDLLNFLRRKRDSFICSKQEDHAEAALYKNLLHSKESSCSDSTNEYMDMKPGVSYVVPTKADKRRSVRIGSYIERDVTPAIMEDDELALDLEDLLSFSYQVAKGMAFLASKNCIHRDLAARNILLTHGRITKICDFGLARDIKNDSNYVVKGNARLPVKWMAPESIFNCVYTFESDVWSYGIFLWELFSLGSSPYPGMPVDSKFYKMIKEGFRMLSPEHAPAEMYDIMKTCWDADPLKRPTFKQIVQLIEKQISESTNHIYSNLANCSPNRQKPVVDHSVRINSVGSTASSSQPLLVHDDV
pIC50: −log10 of the molar value.
endpoint name: pIC50

Mast/stem cell growth factor receptor Kit (Homo sapiens, UniProt P10721) pIC50 of CN1CCN(C[C@@H](NC(=O)C[C@H]2CNC(=O)c3cc(-c4cccc(Cl)c4)cn32)C2CCCCC2)CC1 is < 5.00

###

Target: CDC7/DBF4 (Cell division cycle 7-related protein kinase/Activator of S phase kinase) (Homo sapiens, UniProt O00311)
Sequence (Q9UBU7 whole entry): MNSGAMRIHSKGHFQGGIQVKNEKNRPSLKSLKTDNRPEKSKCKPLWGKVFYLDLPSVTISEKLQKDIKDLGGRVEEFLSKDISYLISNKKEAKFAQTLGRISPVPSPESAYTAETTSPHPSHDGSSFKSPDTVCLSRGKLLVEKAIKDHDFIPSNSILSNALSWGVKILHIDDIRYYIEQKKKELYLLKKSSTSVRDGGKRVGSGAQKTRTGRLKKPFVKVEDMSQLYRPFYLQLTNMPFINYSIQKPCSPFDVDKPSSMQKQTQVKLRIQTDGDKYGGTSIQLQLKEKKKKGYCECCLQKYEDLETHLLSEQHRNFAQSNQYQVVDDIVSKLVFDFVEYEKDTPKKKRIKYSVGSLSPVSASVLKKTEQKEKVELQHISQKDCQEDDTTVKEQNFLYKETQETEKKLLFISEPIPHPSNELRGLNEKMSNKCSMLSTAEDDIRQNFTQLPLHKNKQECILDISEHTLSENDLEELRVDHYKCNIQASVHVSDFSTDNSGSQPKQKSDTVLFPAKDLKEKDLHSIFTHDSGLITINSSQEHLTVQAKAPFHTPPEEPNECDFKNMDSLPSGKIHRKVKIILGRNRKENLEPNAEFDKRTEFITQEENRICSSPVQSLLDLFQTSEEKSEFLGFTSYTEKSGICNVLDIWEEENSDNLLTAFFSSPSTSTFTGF
Sequence (O00311 whole entry): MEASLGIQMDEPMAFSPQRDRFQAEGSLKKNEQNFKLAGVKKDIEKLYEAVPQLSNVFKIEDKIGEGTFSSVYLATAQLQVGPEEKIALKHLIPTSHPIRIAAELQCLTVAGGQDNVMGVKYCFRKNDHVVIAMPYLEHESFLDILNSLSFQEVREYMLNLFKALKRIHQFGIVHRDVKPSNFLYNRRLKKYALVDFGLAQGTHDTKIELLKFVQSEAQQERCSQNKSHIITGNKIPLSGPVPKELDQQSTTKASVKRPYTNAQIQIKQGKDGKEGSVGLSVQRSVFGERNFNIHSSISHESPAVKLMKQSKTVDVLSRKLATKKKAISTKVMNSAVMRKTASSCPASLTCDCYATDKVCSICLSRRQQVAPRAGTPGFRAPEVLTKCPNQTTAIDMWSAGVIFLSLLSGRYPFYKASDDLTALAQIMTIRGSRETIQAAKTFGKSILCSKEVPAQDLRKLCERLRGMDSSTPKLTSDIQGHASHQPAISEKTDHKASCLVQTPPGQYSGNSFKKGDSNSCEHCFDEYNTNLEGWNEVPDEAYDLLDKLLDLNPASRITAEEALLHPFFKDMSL
Assay: Inhibition of CDC7/DBF4 (unknown origin)
endpoint name: IC50

Recorded result, CN1CCN(C[C@@H](NC(=O)C[C@H]2CNC(=O)c3cc(-c4cccc(Cl)c4)cn32)C2CCCCC2)CC1 , IC50: > 10 µM

###

Biological target: Mitotic checkpoint serine/threonine-protein kinase BUB1 (Homo sapiens, UniProt O43683)
pIC50: −log10 of the molar value.
endpoint name: pIC50

Mitotic checkpoint serine/threonine-protein kinase BUB1 (Homo sapiens, UniProt O43683) pIC50 of CN1CCN(C[C@@H](NC(=O)C[C@H]2CNC(=O)c3cc(-c4cccc(Cl)c4)cn32)C2CCCCC2)CC1 is < 5.00
